System: human red blood cells
Assay: Hemolytic activity
Type: cell-based
Settings: red cells of human, 18 h, 100
Square brackets hold non-standard residues; d marks the D form. Peptide text beside a SMILES is read from it.
ENDPOINT: Hemolysis percent, 100 μM (%)
One number for each entry, in %.

compound="CC(C)C[C@@H](NC(=O)[C@H](N)Cc1c[nH]c2ccccc12)C(=O)N[C@@H](C(=O)N[C@H](Cc1c[nH]c2ccccc12)C(=O)N[C@@H](C(=O)N[C@H](Cc1ccc(O)cc1)C(=O)N[C@H](CC(C)C)C(=O)N[C@H](CCCNC(=N)N)C(=O)N[C@H](CCCCN)C(=O)N[C@H](CCCCN)C(=O)N[C@H](CCCNC(=N)N)C(N)=O)C(C)C)C(C)C [WCopWVY2] (H-[dW][dL][dV][dW][dV][dY][dL][dR][dK][dK][dR]-NH2)" endpoint_value=10.12
compound="CC[C@@H](C)[C@@H](NC(=O)[C@@H](Cc1c[nH]c2ccccc12)NC(=O)[C@@H](CCCNC(=N)N)NC(=O)[C@H](N)CCCNC(=N)N)C(=O)N[C@H](Cc1c[nH]c2ccccc12)C(=O)N[C@@H](C(=O)N[C@@H](C(=O)N[C@H](Cc1c[nH]c2ccccc12)C(=O)N[C@H](CCCNC(=N)N)C(N)=O)[C@H](C)CC)C(C)C [WCopW54] (H-[dR][dR][dW][dI][dW][dV][dI][dW][dR]-NH2)" endpoint_value=35.13

Exam item: Recorded Hemolysis percent, 100 μM of CC[C@@H](C)[C@@H](NC(=O)[C@@H](Cc1c[nH]c2ccccc12)NC(=O)[C@H](NC(=O)[C@@H](CC(C)C)NC(=O)[C@H](N)Cc1c[nH]c2ccccc12)C(C)C)C(=O)N[C@H](Cc1ccc(O)cc1)C(=O)N[C@H](CC(C)C)C(=O)N[C@H](CCCNC(=N)N)C(=O)N[C@H](CCCCN)C(=O)N[C@H](CCCCN)C(=O)N[C@H](CCCNC(=N)N)C(N)=O [WCopWVY] (H-[dW][dL][dV][dW][dI][dY][dL][dR][dK][dK][dR]-NH2) , please.
Marked response: 7.25

---

Could you please report measured Hemolysis percent, 100 μM for the items listed next?
Test system: human red blood cells
Test: Hemolytic activity
Format: cell-based
Details: red cells of human, 18 h, 100
Protocol: Human red blood cells (Zenbio, North Carolina, USA) and peptides were separately diluted in PBS (blood concentration, 8%). The blood cell and peptide solutions were then mixed in 96-well polyethylene plates (SPL, Gyeonggi-do, Korea) and incubated for 18 h at 37 °C. […] Hemolysis levels were determined by measuring the absorbance at 540 nm with a SpectraMax plate spectrophotometer (Molecular Devices, California, USA). […]
Square brackets hold non-standard residues; d marks the D form. Peptide text beside a SMILES is read from it.
Answers are plain numbers, in %.

molecule="CC[C@@H](C)[C@@H](NC(=O)[C@@H](Cc1c[nH]c2ccccc12)NC(=O)[C@@H](Cc1ccc(O)cc1)NC(=O)[C@@H](CC(C)C)NC(=O)[C@H](N)Cc1c[nH]c2ccccc12)C(=O)N[C@H](CC(C)C)C(=O)N[C@H](CC(C)C)C(=O)N[C@H](CCCNC(=N)N)C(=O)N[C@H](CCCCN)C(=O)N[C@H](CCCCN)C(=O)N[C@H](CCCNC(=N)N)C(N)=O [WCopWYL] (H-[dW][dL][dY][dW][dI][dL][dL][dR][dK][dK][dR]-NH2)" measured_target="human red blood cells" endpoint_value=9.62

// next item, Hemolysis percent, 100 μM requested
Exam item: Recorded Hemolysis percent, 100 μM of CC[C@@H](C)[C@@H](NC(=O)[C@@H](Cc1c[nH]c2ccccc12)NC(=O)[C@H](NC(=O)[C@@H](CC(C)C)NC(=O)[C@H](N)Cc1c[nH]c2ccccc12)C(C)C)C(=O)N[C@H](Cc1c[nH]c2ccccc12)C(=O)N[C@H](CCCNC(=N)N)C(=O)N[C@H](CCCNC(=N)N)C(=O)N[C@H](CCC(=O)O)C(=O)N[C@H](CCC(N)=O)C(N)=O [WCopW34] (H-[dW][dL][dV][dW][dI][dW][dR][dR][dE][dQ]-NH2) , please.
Marked response: -0.14

---

Could you please report measured MIC in 0.2% albumin and 0.01% AcOH added CLSI standard condition, MDR S. aureus for the items listed next?
Test system: MDR S. aureus
Assay: microbe, parasite or virus in culture
Settings: CAMHB plus 0.2% bovine serum albumin and 0.01% acetic acid; values marked * in Table 2
Ends that are not written are not given here.
One number for each entry, in µM.

The following substances have reported results that may help.
substance="LLLLLWRRR-NH2 [AcWL-2]" endpoint_value=10
substance="WLVWVWRRR-NH2 [Hybrid-3]" endpoint_value=5
substance="WLLLLLRRR-NH2 [AcWL-1]" endpoint_value=5

Please look at the items below and tell me MIC in 0.2% albumin and 0.01% AcOH added CLSI standard condition, MDR S. aureus for each one, in order.
1. WLRRWWIRV-NH2 [HLWCopW29-2]
2. WRLWRWIVR-NH2 [HLWCopW29-3]

Marked response:
10
20

---

Test: Maximum soluble concentration / turbidity
Format: physicochemical
Details: lyophilized peptide reconstructed in PBS at 200-6.25 μM; visible turbidity checked every 12 h for 5 days; at least twice
Method: Supplementary Methods Bacteria preparation, Antimicrobial peptides preparation, Minimal-inhibitory-concentration measurements, Hemolysis-activity measurements, Tryptophan fluorescence measurements, Isothermal titration calorimetry measurements, Bacteria membrane ion permeation measurements, Outer-inner membrane permeation, Field-emission scanning electron microscopy and Antimicrobial kinetics were performed as described in Materials and Methods. Liposome (LUV) preparation. […]
Ends that are not written are not given here.
ENDPOINT: Maximum soluble concentration in PBS

substance="WLVWIWRRR-NH2 [LWCopW29]" endpoint_value="> 200 µM"
substance="WLRRWWIRV-NH2 [HLWCopW29-2]" endpoint_value="> 200 µM"

// next item, Maximum soluble concentration in PBS requested
Exam item: Recorded Maximum soluble concentration in PBS of WLVWIGRRR-NH2 [Hybrid-2] , please.
Marked response: > 200 µM

---

Could you please report measured Minimum inhibitory concentrations, MDR A. baumannii for the items listed next?
Test system: MDR A. baumannii
Test: microbe, parasite or virus in culture
Conditions: CLSI broth microdilution; CAMHB with 50 mg/L Ca2+, 10 mg/L Mg2+; 5 × 10^5 CFU/ml; 18 h 37 °C; triplicate; strain ATCC BAA-1605
Procedure: MDR Pseudomonas aeruginosa (CCARM 2180) was purchased from the Culture Collection of Antimicrobial Resistance Microbes (Seoul, Republic of Korea). […] To assess antimicrobial activity, the MIC50 and MIC90 were measured using broth microdilution following CLSI guidelines. […] MICs in albumin and acetic acid solutions were measured using the same protocol but with 0.2% bovine serum albumin (Bovogen, Keilor, Australia), 0.01% acetic acid (Merck, New Jersey, USA), and CAMHB with both calcium and magnesium. […]
Square brackets hold non-standard residues; d marks the D form. Peptide text beside a SMILES is read from it. Trp(5-OH) = N[C@@H](Cc1c[nH]c2ccc(O)cc12)C(=O)O

The following compounds have reported results that may help.
compound="CC[C@@H](C)[C@@H](NC(=O)[C@@H](Cc1c[nH]c2ccccc12)NC(=O)[C@@H](CC(C)C)NC(=O)[C@H](N)CC(C)C)C(=O)NCC(=O)N[C@H](CC(C)C)C(=O)N[C@H](CCCCN)C(=O)N[C@H](CCCCN)C(=O)N[C@H](CCCCN)C(=O)N[C@H](CCCCN)C(N)=O [WCopW14] (H-[dL][dL][dW][dI]G[dL][dK][dK][dK][dK]-NH2)" endpoint_value="> 20 µM"
compound="CC[C@H](C)[C@H](NC(=O)[C@H](Cc1c[nH]c2ccc(O)cc12)NC(=O)[C@H](CC(C)C)NC(=O)[C@H](CC(C)C)NC(=O)[C@@H](N)Cc1c[nH]c2ccc(O)cc12)C(=O)N[C@@H](C)C(=O)N[C@@H](CC(C)C)C(=O)N[C@@H](CCCNC(=N)N)C(=O)N[C@@H](CCCCN)C(=O)N[C@@H](CCCCN)C(N)=O [WhCopW] (H-[Trp(5-OH)]LL[Trp(5-OH)]IALRKK-NH2)" endpoint_value="> 20 µM"

// next item, Minimum inhibitory concentrations, MDR A. baumannii requested
Exam item: Recorded Minimum inhibitory concentrations, MDR A. baumannii of CC(C)C[C@@H](NC(=O)[C@H](N)Cc1c[nH]c2ccccc12)C(=O)N[C@H](CC(C)C)C(=O)N[C@H](Cc1c[nH]c2ccccc12)C(=O)N[C@H](C)C(=O)NCC(=O)N[C@H](C)C(=O)N[C@H](CCCNC(=N)N)C(=O)N[C@H](CCCCN)C(=O)N[C@H](CCCCN)C(=O)N[C@H](CCCNC(=N)N)C(N)=O [WCopW21] (H-[dW][dL][dL][dW][dA]G[dA][dR][dK][dK][dR]-NH2) , please.
Marked response: > 20 µM
